biological target: Protein Kinase C; experiment: Protein kinase C inhibitor activity / selectivity (Calcium Calmodulin Dependent Protein Kinase, Casein Protein Kinase II, cAMP-Dependent Protein Kinase Catalytic Subunit and Protein-Tyrosine Kinase assays)
Measured Attribute: IC50

(Q) Please report the recorded IC50 for CN(C)C[C@@H]1CCn2cc(c3ccccc32)C2=C(C(=O)NC2=O)c2cn(c3ccccc23)CCO1 [Mesylate] .
(A) < 10 µM

====

experiment: Hygroscopicity of salts at relative humidities; format: physicochemical; conditions: 80% RH
Measured Attribute: Hygroscopicity, RH 80% (wt % initial)
Expressed in wt % initial, but write only the number.

{"Molecule": "CN(C)C[C@@H]1CCn2cc(c3ccccc32)C2=C(C(=O)NC2=O)c2cn(c3ccccc23)CCO1 [Mesylate]", "Hygroscopicity, RH 80% / wt % initial": 104.4}

Could you now consider this next molecule?
(Q) Please report the recorded Hygroscopicity, RH 80% for CN(C)C[C@@H]1CCn2cc(c3ccccc32)C2=C(C(=O)NC2=O)c2cn(c3ccccc23)CCO1 [Phosphate] .
(A) 106.6

====

experiment: Thermogravimetric analysis (TGA) of salts; assay type: physicochemical; conditions: heated 20-100° C.
Structures can show the parent of a compound that is named as a salt.
// reported TGA weight loss 20-100° C. for each item listed
Expressed in % wt loss, but write only the number.

{"Compound": "CN(C)C[C@@H]1CCn2cc(c3ccccc32)C2=C(C(=O)NC2=O)c2cn(c3ccccc23)CCO1 [Acetate]", "TGA weight loss 20-100° C., % wt loss": 0.77}
{"Compound": "CN(C)C[C@@H]1CCn2cc(c3ccccc32)C2=C(C(=O)NC2=O)c2cn(c3ccccc23)CCO1 [Phosphate]", "TGA weight loss 20-100° C., % wt loss": 5.50}
{"Compound": "CN(C)C[C@@H]1CCn2cc(c3ccccc32)C2=C(C(=O)NC2=O)c2cn(c3ccccc23)CCO1 [Succinate]", "TGA weight loss 20-100° C., % wt loss": 0.73}
{"Compound": "CN(C)C[C@@H]1CCn2cc(c3ccccc32)C2=C(C(=O)NC2=O)c2cn(c3ccccc23)CCO1 [HCl]", "TGA weight loss 20-100° C., % wt loss": 1.42}
{"Compound": "CN(C)C[C@@H]1CCn2cc(c3ccccc32)C2=C(C(=O)NC2=O)c2cn(c3ccccc23)CCO1 [Sulfate]", "TGA weight loss 20-100° C., % wt loss": 5.50}
{"Compound": "CN(C)C[C@@H]1CCn2cc(c3ccccc32)C2=C(C(=O)NC2=O)c2cn(c3ccccc23)CCO1 [Tartrate]", "TGA weight loss 20-100° C., % wt loss": 5.50}

(Q) Please report the recorded TGA weight loss 20-100° C. for CN(C)C[C@@H]1CCn2cc(c3ccccc32)C2=C(C(=O)NC2=O)c2cn(c3ccccc23)CCO1 [Mesylate] .
(A) 3.97

====

assay: physchem; format: physicochemical; details: water, pH 4.5, water, aqueous solubility at most preferred pH
Measured Attribute: solubility (µg/mL)
Expressed in µg/mL, but write only the number.

(Q) Please report the recorded solubility for CN(C)C[C@@H]1CCn2cc(c3ccccc32)C2=C(C(=O)NC2=O)c2cn(c3ccccc23)CCO1 [Mesylate] .
(A) 2250

====

// reported Aqueous solubility (base) for each item listed
experiment: physchem; type: physicochemical; conditions: water
Structures can show the parent of a compound that is named as a salt.
Expressed in μg base/mL H2 O, but write only the number.

Solved entries (count: 3):
{"Compound": "CN(C)C[C@@H]1CCn2cc(c3ccccc32)C2=C(C(=O)NC2=O)c2cn(c3ccccc23)CCO1 [Phosphate]", "Value Units": "μg base/mL H2 O", "Aqueous solubility (base)": 609}
{"Compound": "CN(C)C[C@@H]1CCn2cc(c3ccccc32)C2=C(C(=O)NC2=O)c2cn(c3ccccc23)CCO1 [Succinate]", "Value Units": "μg base/mL H2 O", "Aqueous solubility (base)": 0.4}
{"Compound": "CN(C)C[C@@H]1CCn2cc(c3ccccc32)C2=C(C(=O)NC2=O)c2cn(c3ccccc23)CCO1 [Tartrate]", "Value Units": "μg base/mL H2 O", "Aqueous solubility (base)": 54}

Could you now consider this next compound?
(Q) Please report the recorded Aqueous solubility (base) for CN(C)C[C@@H]1CCn2cc(c3ccccc32)C2=C(C(=O)NC2=O)c2cn(c3ccccc23)CCO1 [HCl] .
(A) 249

====

// reported Hygroscopicity, RH 27% for each item listed
assay: Hygroscopicity of salts at relative humidities; type: physicochemical; conditions: 27% RH
Counter-ions that a name gives are not always drawn.
Expressed in wt % initial, but write only the number.

Solved entries (count: 3):
{"Compound": "CN(C)C[C@@H]1CCn2cc(c3ccccc32)C2=C(C(=O)NC2=O)c2cn(c3ccccc23)CCO1 [HCl]", "Value Units": "wt % initial", "Hygroscopicity, RH 27%": 98.2}
{"Compound": "CN(C)C[C@@H]1CCn2cc(c3ccccc32)C2=C(C(=O)NC2=O)c2cn(c3ccccc23)CCO1 [Succinate]", "Value Units": "wt % initial", "Hygroscopicity, RH 27%": 98.5}
{"Compound": "CN(C)C[C@@H]1CCn2cc(c3ccccc32)C2=C(C(=O)NC2=O)c2cn(c3ccccc23)CCO1 [Mesylate]", "Value Units": "wt % initial", "Hygroscopicity, RH 27%": 98.5}

(Q) Please report the recorded Hygroscopicity, RH 27% for CN(C)C[C@@H]1CCn2cc(c3ccccc32)C2=C(C(=O)NC2=O)c2cn(c3ccccc23)CCO1 [Tartrate] .
(A) 98.2

(Q) # repeat for CN(C)C[C@@H]1CCn2cc(c3ccccc32)C2=C(C(=O)NC2=O)c2cn(c3ccccc23)CCO1 [Phosphate]
(A) 98.6

(Q) # repeat for CN(C)C[C@@H]1CCn2cc(c3ccccc32)C2=C(C(=O)NC2=O)c2cn(c3ccccc23)CCO1 [Sulfate]
(A) 98.4

(Q) # repeat for CN(C)C[C@@H]1CCn2cc(c3ccccc32)C2=C(C(=O)NC2=O)c2cn(c3ccccc23)CCO1 [Acetate]
(A) 98.6

====

assay: Hygroscopicity of salts at relative humidities; format: physicochemical; details: 35% RH
Where a name gives a salt, the structure may show the parent alone.
// reported Hygroscopicity, RH 35% for each item listed
Expressed in wt % initial, but write only the number.

{"Compound": "CN(C)C[C@@H]1CCn2cc(c3ccccc32)C2=C(C(=O)NC2=O)c2cn(c3ccccc23)CCO1 [Tartrate]", "Hygroscopicity, RH 35%, wt % initial": 101.3}
{"Compound": "CN(C)C[C@@H]1CCn2cc(c3ccccc32)C2=C(C(=O)NC2=O)c2cn(c3ccccc23)CCO1 [Succinate]", "Hygroscopicity, RH 35%, wt % initial": 99.1}
{"Compound": "CN(C)C[C@@H]1CCn2cc(c3ccccc32)C2=C(C(=O)NC2=O)c2cn(c3ccccc23)CCO1 [HCl]", "Hygroscopicity, RH 35%, wt % initial": 99.3}
{"Compound": "CN(C)C[C@@H]1CCn2cc(c3ccccc32)C2=C(C(=O)NC2=O)c2cn(c3ccccc23)CCO1 [Mesylate]", "Hygroscopicity, RH 35%, wt % initial": 99.4}
{"Compound": "CN(C)C[C@@H]1CCn2cc(c3ccccc32)C2=C(C(=O)NC2=O)c2cn(c3ccccc23)CCO1 [Sulfate]", "Hygroscopicity, RH 35%, wt % initial": 99.8}
{"Compound": "CN(C)C[C@@H]1CCn2cc(c3ccccc32)C2=C(C(=O)NC2=O)c2cn(c3ccccc23)CCO1 [Phosphate]", "Hygroscopicity, RH 35%, wt % initial": 102.6}

(Q) Please report the recorded Hygroscopicity, RH 35% for CN(C)C[C@@H]1CCn2cc(c3ccccc32)C2=C(C(=O)NC2=O)c2cn(c3ccccc23)CCO1 [Acetate] .
(A) 99.2

====

// reported Aqueous solubility (salt) for each item listed
assay: physchem; type: physicochemical; settings: water

Solved entries (count: 2):
{"Compound": "CN(C)C[C@@H]1CCn2cc(c3ccccc32)C2=C(C(=O)NC2=O)c2cn(c3ccccc23)CCO1 [Succinate]", "Aqueous solubility (salt)": "0.5 μg salt/mL H2 O"}
{"Compound": "CN(C)C[C@@H]1CCn2cc(c3ccccc32)C2=C(C(=O)NC2=O)c2cn(c3ccccc23)CCO1 [Phosphate]", "Aqueous solubility (salt)": "736 μg salt/mL H2 O"}

(Q) Please report the recorded Aqueous solubility (salt) for CN(C)C[C@@H]1CCn2cc(c3ccccc32)C2=C(C(=O)NC2=O)c2cn(c3ccccc23)CCO1 [Tartrate] .
(A) 71 μg salt/mL H2 O

(Q) # repeat for CN(C)C[C@@H]1CCn2cc(c3ccccc32)C2=C(C(=O)NC2=O)c2cn(c3ccccc23)CCO1 [Acetate]
(A) 1 μg salt/mL H2 O

(Q) # repeat for CN(C)C[C@@H]1CCn2cc(c3ccccc32)C2=C(C(=O)NC2=O)c2cn(c3ccccc23)CCO1 [Sulfate]
(A) 14 μg salt/mL H2 O
